Origin of measurements: patent US11384078B2

System: Trypanosoma cruzi amastigotes cultured in 3T3 fibroblast cells
Assay: Assay for growth inhibition of kinetoplastid parasite Trypanosoma cruzi (beta-galactosidase Tulahuen strain, CPRG readout)
Assay type: cell-based
Details: Trypanosoma cruzi, Fibroblast, T. cruzi amastigotes in 3T3 fibroblast cells; read-out: Buckner infectious T. cruzi EC50
ENDPOINT_LABEL: pEC50
In plain terms, pEC50 is the concentration in mol/L turned into minus its base-10 logarithm.

Recorded results for 4 compounds are shown here.
CCCC(C)c1cnc2nn(-c3cc(NC(=O)N4CC[C@@H](F)C4)ccc3F)cc2c1 (some centres unmarked) :: 6.54
CC(C)c1cnc2nn(-c3cc(NC(=O)c4ccc(F)cn4)ccc3F)cc2c1 :: 7.38
O=C(Nc1ccc(F)c(-n2cc3cc(C(F)(F)F)cnc3n2)c1)N1CCC1 :: 8.70
Cc1nc(C)c(C(=O)Nc2ccc(F)c(-n3cc4cc(CC(C)(C)C)cnc4n3)c2)o1 :: 7.34

Prompt: Look up pEC50 for this compound: CC(C)c1cnc2nn(-c3cc(NC(=O)N4CCC4)ccc3F)cc2c1
Completion: 8.38

Prompt: Given O=C(Nc1ccc(F)c(-n2cc3cc(N4CCOCC4)cnc3n2)c1)N1CC(F)(F)C1 , state its recorded pEC50.
Completion: 7.74

Prompt: Which measured pEC50 value corresponds to Cc1cccnc1-c1cnc2nn(-c3cc(NC(=O)N4CC[C@@H](F)C4)ccc3F)cc2c1 ?
Completion: 9.00

Prompt: Please look up its pEC50: O=C(Nc1ccc(F)c(-n2cc3cc(-c4ccc(F)cn4)cnc3n2)c1)N1CCC1
Completion: 9.00

====

Tested on: L. donovani HU3 strain in mouse peritoneal macrophages
Experiment: Assay for inhibition of parasitemia of Leishmania donovani in mouse macrophages (SYBR Green nuclei count, high-content imaging)
Type: cell-based
Settings: Leishmania donovani, Peritoneal macrophage, L. donovani in mouse peritoneal macrophages; read-out: L. donovani in Mouse Macrophages EC50
Consider the following molecules and their measured pEC50 readings.
Scale note: pEC50 = -log10(concentration in M).

Please review the following examples before continuing.
CCCC(C)c1cnc2nn(-c3cc(NC(=O)N4CC(F)C4)ccc3F)cc2c1 (centres unmarked) :: 6.96
O=C(Nc1ccc(F)c(-n2cc3cc(N4CC5(COC5)C4)cnc3n2)c1)N1CC(F)C1 :: 7.80
CCC(C)(C)c1cnc2nn(-c3cc(NC(=O)c4oc(C)nc4C)ccc3F)cc2c1 :: 5.68
CN(C)c1cnc2nn(-c3cc(NC(=O)c4ccco4)ccc3F)cc2c1 :: 7.39
O=C(Nc1ccc(F)c(-n2cc3cc(N4CCOCC4)cnc3n2)c1)N1CC(F)C1 :: 8.15

Prompt: Look up pEC50 for this molecule: O=C(Nc1ccc(F)c(-n2cc3cc(N4CC5(CCO5)C4)cnc3n2)c1)N1CC(F)C1
Completion: 8.40

Prompt: Can you share its pEC50? I mean this molecule: CCCC(C)c1cnc2nn(-c3cc(NC(=O)N4CCC4)ccc3F)cc2c1 (centres unmarked)
Completion: 6.46

====

Entries annotated with measured EC50
Test system: L. donovani HU3 strain in mouse peritoneal macrophages
Assay: Assay for inhibition of parasitemia of Leishmania donovani in mouse macrophages (SYBR Green nuclei count, high-content imaging)
Format: cell-based
Details: Leishmania donovani, Peritoneal macrophage, L. donovani in mouse peritoneal macrophages; read-out: L. donovani in Mouse Macrophages EC50
Write the number in µM without appending the unit.

Completed entries (count: 5):
CN(C)c1cnc2nn(-c3cc(NC(=O)N4CC[C@@H](F)C4)ccc3F)cc2c1 :: 0.008
N#Cc1ccc(C(=O)Nc2ccc(F)c(-n3cc4cc(-c5ccccn5)cnc4n3)c2)o1 :: 0.013
CC(C)Cc1cnc2nn(-c3cc(NC(=O)N4CCC4)ccc3F)cc2c1 :: 0.004
[2H]C([2H])([2H])N(c1cnc2nn(-c3cc(NC(=O)N4CC[C@@H](F)C4)ccc3F)cc2c1)C([2H])([2H])[2H] :: 0.002
O=C(Nc1ccc(F)c(-n2cc3cc(-c4ccccn4)cnc3n2)c1)N1CC(F)(F)C1 :: 0.0038

Prompt: What does the data say about its EC50? Entry: CC(C)c1cnc2nn(-c3cc(NC(=O)c4nc(Cl)ccc4F)ccc3F)cc2c1
Completion: 0.12

Prompt: Looking for the measured EC50 of Cc1nc(C)c(C(=O)Nc2ccc(F)c(-n3cc4cc(C5CCOCC5)cnc4n3)c2)o1 , can you help?
Completion: 0.03

Prompt: Entry O=C(Nc1ccc(F)c(-n2cc3cccnc3n2)c1)N1CC(F)C1 has what EC50?
Completion: 0.033

Prompt: What measured EC50 goes with O=C(Nc1ccc(F)c(-n2cc3cc(CC(F)(F)F)cnc3n2)c1)N1CC(F)C1 ?
Completion: 0.0053
